Each record here notes measured FACS signal at 40 nM.
molecular target: human Claudin-6 (CLDN6) (human) (UniProt P56747); experiment: FACS, limiting dilution, UMUC4 cells
measuredParameter: FACS signal at 40 nM

binder	measuredParameter	measuredNumber
AB S12 (antibody, V domains shown) VH: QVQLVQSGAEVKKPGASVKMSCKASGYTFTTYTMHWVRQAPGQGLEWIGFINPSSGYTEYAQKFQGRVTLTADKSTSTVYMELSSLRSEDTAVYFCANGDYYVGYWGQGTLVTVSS VL: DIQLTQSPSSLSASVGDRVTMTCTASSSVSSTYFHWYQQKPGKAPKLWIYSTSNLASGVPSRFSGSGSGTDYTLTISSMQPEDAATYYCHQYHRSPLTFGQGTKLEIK	FACS signal at 40 nM	14800
AB1-11 (antibody, V domains shown, humanized; also called humanized AB1-11; HU-11) VH: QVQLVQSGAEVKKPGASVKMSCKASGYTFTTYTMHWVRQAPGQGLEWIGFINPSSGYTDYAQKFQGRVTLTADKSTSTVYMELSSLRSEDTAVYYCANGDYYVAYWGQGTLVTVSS VL: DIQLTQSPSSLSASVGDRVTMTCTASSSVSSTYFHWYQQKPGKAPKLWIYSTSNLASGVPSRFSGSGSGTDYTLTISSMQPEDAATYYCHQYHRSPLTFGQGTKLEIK	FACS signal at 40 nM	4160
AB S4 (antibody, V domains shown) VH: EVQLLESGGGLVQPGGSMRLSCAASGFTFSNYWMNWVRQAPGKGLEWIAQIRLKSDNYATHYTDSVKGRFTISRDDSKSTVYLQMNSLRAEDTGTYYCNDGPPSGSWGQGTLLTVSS VL: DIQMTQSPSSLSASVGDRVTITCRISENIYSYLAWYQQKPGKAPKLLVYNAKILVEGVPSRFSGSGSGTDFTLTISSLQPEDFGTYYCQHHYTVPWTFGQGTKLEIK	FACS signal at 40 nM	4120
AB S11 (antibody, V domains shown) VH: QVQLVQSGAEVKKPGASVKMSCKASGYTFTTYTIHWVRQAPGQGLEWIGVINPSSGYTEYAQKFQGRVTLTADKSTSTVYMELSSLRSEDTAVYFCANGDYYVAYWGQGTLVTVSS VL: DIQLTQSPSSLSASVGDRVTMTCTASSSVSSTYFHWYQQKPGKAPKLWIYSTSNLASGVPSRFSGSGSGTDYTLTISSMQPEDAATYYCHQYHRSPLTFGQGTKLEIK	FACS signal at 40 nM	12800
AB S10 (antibody, V domains shown) VH: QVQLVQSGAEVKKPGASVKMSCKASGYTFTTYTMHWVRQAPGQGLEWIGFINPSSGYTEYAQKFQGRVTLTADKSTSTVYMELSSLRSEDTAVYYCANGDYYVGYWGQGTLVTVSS VL: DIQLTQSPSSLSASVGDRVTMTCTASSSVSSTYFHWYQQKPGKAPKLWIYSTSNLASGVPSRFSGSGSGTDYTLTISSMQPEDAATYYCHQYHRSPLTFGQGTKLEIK	FACS signal at 40 nM	9940
AB S9 (antibody, V domains shown) VH: QVQLVQSGAEVKKPGASVKMSCKASGYTFTTYTIHWVRQAPGQGLEWIGVINPSSGYTDYAQKFQGRVTLTADKSTSTVYMELSSLRSEDTAVYFCANGDYYVGYWGQGTLVTVSS VL: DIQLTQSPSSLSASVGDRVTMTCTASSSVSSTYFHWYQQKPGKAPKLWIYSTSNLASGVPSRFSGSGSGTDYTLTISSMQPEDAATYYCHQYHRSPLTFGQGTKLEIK	FACS signal at 40 nM	23900
AB S6 (antibody, V domains shown) VH: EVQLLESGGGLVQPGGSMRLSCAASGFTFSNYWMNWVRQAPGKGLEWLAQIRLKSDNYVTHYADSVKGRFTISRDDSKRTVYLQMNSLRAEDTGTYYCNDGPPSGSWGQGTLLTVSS VL: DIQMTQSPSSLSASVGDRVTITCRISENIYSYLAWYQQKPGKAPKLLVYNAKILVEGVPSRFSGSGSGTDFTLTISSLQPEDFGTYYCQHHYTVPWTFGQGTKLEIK	FACS signal at 40 nM	4120
